# target entity: serine racemase (Homo sapiens, UniProt Q9GZT4)
# Sequence (Q9GZT4 1-340): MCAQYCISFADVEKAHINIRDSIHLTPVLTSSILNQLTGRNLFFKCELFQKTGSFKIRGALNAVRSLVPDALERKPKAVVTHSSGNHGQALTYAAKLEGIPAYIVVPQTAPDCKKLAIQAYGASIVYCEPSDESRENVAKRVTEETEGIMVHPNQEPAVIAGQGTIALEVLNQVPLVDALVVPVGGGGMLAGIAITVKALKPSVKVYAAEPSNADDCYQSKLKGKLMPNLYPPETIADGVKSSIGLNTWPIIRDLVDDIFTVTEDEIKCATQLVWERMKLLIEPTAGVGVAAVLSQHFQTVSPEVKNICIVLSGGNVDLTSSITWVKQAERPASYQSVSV
# protocol text: serine racemase inhibition assay (intracellular D-serine by CE-LIF)
# Format: cell-based
# measurement setup: 36 h incubation, cell line not stated
Below is a list of entries, each paired with its recorded IC50 value.

N[C@@]1(c2ccccc2Cl)CCCCC1=O [(R)-norKet, (R)-norketamine, reference compound] : 40 to 80 nM

Identify measured IC50 corresponding to N[C@]1(c2ccccc2Cl)CCCCC1=O [(S)-norKet, (S)-norketamine, reference compound]
50 to 120 nM

====

# target entity: α7 nAChR (Rattus norvegicus, UniProt Q05941)
# Construct: expressed in transfected cells; host or cells: KXα7R1
# Sequence (Q05941 23-502): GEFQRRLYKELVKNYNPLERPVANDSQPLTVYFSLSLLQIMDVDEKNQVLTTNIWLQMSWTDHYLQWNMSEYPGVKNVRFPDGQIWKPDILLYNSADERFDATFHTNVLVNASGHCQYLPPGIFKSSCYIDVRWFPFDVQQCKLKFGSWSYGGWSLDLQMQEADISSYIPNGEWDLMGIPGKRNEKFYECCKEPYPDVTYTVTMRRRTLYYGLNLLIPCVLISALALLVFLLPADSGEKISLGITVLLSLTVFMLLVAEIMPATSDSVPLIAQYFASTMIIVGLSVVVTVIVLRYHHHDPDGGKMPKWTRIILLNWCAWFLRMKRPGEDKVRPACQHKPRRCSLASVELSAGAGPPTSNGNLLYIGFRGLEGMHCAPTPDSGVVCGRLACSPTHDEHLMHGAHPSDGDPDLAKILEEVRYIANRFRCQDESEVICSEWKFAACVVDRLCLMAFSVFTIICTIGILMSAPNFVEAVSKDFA
# protocol text: whole-cell patch clamp, currents evoked by acetylcholine in KXα7R1
# Assay type: cell-based
# measurement setup: read-out: IC50 (α7)
# From the text: Without wishing to be bound to any particular theory applicants believe certain compounds of Formula I exert activity via serine racemase inhibition. Since nicotinic acetylcholine receptors (nAChR) have been validated as a target in analgesia applicants investigated the activity of DHNK at two nAChR subtypes, α7 and α3β4 nAChR. […]
assay endpoint: IC50

Supply recorded IC50 for NC1(c2ccccc2Cl)CCC=CC1=O (racemic) [(R,S)-DHNK, (R,S)-dehydronorketamine] here.
~50 nM

====

# target entity: α3β4 nAChR (Rattus norvegicus, UniProt P04757+P12392)
# Sequence (P04757 26-499): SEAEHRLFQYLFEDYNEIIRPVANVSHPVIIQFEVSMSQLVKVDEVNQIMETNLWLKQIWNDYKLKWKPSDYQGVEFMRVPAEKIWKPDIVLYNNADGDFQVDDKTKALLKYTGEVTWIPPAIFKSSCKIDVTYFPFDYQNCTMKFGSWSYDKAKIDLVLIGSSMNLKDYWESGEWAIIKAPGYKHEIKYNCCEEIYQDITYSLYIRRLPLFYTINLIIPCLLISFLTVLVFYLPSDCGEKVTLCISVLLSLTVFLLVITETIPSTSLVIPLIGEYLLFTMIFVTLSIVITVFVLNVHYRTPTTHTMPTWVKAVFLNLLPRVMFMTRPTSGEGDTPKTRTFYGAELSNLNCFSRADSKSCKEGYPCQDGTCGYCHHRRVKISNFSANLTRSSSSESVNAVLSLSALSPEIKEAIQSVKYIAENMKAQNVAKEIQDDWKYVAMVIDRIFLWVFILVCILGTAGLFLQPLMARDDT
# Sequence (P12392 21-495): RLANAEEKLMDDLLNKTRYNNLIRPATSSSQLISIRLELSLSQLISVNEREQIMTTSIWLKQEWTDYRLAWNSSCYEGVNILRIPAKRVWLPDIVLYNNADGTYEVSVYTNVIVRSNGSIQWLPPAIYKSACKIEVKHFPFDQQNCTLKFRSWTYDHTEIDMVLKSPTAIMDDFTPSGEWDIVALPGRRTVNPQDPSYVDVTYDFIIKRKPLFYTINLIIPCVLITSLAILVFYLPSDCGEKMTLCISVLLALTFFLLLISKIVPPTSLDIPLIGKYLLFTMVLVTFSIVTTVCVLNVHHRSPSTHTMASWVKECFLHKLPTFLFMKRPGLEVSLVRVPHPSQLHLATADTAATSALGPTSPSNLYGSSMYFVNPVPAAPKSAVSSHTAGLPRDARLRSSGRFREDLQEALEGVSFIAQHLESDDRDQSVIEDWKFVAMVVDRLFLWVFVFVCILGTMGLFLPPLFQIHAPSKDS
# protocol text: nicotine-stimulated 86Rb+ efflux in HEK293 cells expressing α3β4 nAChR; whole-cell patch clamp
assay endpoint: pIC50
pIC50 here is simply -log10 of the concentration when that concentration is written in mol/L.

Retrieve pIC50 on α3β4 nAChR (Rattus norvegicus, UniProt P04757+P12392); query CNC1(c2ccccc2Cl)CCCCC1=O (stereo not shown)
5.00

Cited source for all entries: patent US20180098993A1
